Tested on: Baf3-WT
Experiment: Cellular assay (Alamar Blue), Baf3-WT with mouse IL-3
Format: cell-based
Conditions: mouse IL-3 at 5 ng/ml, 72 hr
As shown below, each of these molecules has a reported IC50 value.

C[C@H](Nc1cncc(-c2ccc(S(N)(=O)=O)cc2)n1)c1cccc(NC(=O)c2cccc(C(F)(F)F)c2)c1 [Compound 173] | > 10 µM
Cc1cccc(C(=O)Nc2cccc([C@H](C)Nc3cncc(-n4ccnc4)n3)c2)c1 [Compound 143] | < 10 µM
C[C@H](Nc1cncc(-c2ccc(CN3CCN(C)CC3)cc2)n1)c1cccc(NC(=O)c2cccc(C(F)(F)F)c2)c1 [Compound 191] | < 10 µM
Cc1cccc(C(=O)Nc2cccc([C@H](C)Nc3cncc(C(N)=O)n3)c2)c1 [Compound 133] | > 10 µM
C[C@H](Nc1cncc(Cl)n1)c1cccc(NC(=O)c2cccc(CN3CCN(C)CC3)c2)c1 [Compound 127] | > 10 µM
C[C@H](Nc1cncc(-c2cccc(N3CCOCC3)c2)n1)c1cccc(NC(=O)c2ccc(F)c(Cl)c2)c1 [Compound 189] | > 10 µM

Query block: Note IC50 for the molecule shown: C[C@H](Nc1cncc(-c2ccc(S(C)(=O)=O)cc2)n1)c1cccc(NC(=O)c2cccc(C(F)(F)F)c2)c1 [Compound 182]
Result block: > 10 µM
